Where do these numbers come from? They come from PubChem BioAssay.

For each of the compounds below, state its inhibition.
assay-name: inhibitors of TNFa-induced NFkB p65 translocation, primary screen, imaging, HUVEC, MLSMR starter and 10KST1 sets (AID 438);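 also: compound added about 3h40 before a 20 min TNFalpha stimulation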;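 as to inhibition: signal is the nuclear over cytoplasmic p65 intensity ratio per well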
measurement-context: HUVEC TNFa-induced p65 nuclear translocation; at 2 µM, stronger effect = higher value, 0% TNFa-plus-vehicle, 100% no-TNFa wells
All answers are understood in %, so give the number only.

Incoming: Report inhibition for Cc1nn(Cc2ccccc2)c(C)c1NC(=O)CCC(=O)O
Outgoing: 23.6

Incoming: Report inhibition for Cn1c(CN2CCOCC2)nnc1SCC(=O)NCCc1ccccc1
Outgoing: -1

Incoming: Report inhibition for O=C(CCC(=O)OCC(=O)c1ccccc1)NC1CCCCC1
Outgoing: 1.2

Incoming: Report inhibition for O=C(CCCCC(=O)NCc1cccs1)NCc1cccs1
Outgoing: -12.6

Incoming: Report inhibition for COc1ccc(-c2nnc(SCC(=O)N3CCOCC3)o2)cc1OC
Outgoing: 19

Incoming: Report inhibition for Cc1cc(NC(=O)CS(=O)(=O)c2cn(Cc3ccccc3Cl)c3ccccc23)no1
Outgoing: -27.1

Incoming: Report inhibition for Nc1nnc(-c2ccccc2)c(-c2ccccc2)n1
Outgoing: -2.1

Incoming: Report inhibition for COc1ccc(CC(=O)Nc2cc(Cl)ccc2O)cc1
Outgoing: -9.3

Incoming: Report inhibition for O=C(CC1(O)C(=O)Nc2ccccc21)c1ccc2c(c1)OCO2 (configuration not stated)
Outgoing: 4.5

Incoming: Report inhibition for COc1ccc(N2CCN(C(=O)CSc3ccccc3)CC2)cc1
Outgoing: -11.8

Incoming: Report inhibition for CCOC(=O)N1CCC(NC(=O)c2ccc3c(c2)N(C)CCS3)CC1
Outgoing: -0.7

Incoming: Report inhibition for CCn1c(SCC(=O)NCc2ccco2)nc2c(c1=O)SC(C)C2 (configuration not stated)
Outgoing: 8.3

Incoming: Report inhibition for Cn1c(=O)n(C)c2cc(NC(=O)C(F)(F)F)ccc21
Outgoing: -14.4

Incoming: Report inhibition for O=C(NC1CCCCCC1)C1CCCN(S(=O)(=O)c2cccs2)C1 (configuration not stated)
Outgoing: -6.2

Incoming: Report inhibition for Cc1nc2ccccc2c(=O)n1NC(=O)Nc1ccccc1
Outgoing: 0

Incoming: Report inhibition for CCOc1ccc(S(=O)(=O)Nc2ccc(Cl)cn2)c(C)c1C
Outgoing: -35.7

Incoming: Report inhibition for O=C(O)C1CCCN1c1ncnc2c1oc1ccccc12 (configuration not stated)
Outgoing: -4.4

---

For each of the compounds below, state its fluorescence slope.
target-under-test: Voltage-gated potassium channel subunit beta-2 (Rattus norvegicus) (UniProt P62483)
Sequence (P62483 whole entry, looked up): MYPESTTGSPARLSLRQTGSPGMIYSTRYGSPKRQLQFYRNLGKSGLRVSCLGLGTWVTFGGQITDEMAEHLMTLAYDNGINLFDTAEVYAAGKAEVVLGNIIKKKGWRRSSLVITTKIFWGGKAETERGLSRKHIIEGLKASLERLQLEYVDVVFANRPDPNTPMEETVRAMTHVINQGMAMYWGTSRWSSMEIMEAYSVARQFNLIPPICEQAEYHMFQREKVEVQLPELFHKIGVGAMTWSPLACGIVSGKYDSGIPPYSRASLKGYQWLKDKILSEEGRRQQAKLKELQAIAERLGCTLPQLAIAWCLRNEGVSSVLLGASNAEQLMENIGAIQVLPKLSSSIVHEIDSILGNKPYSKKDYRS
assay-name: inhibitors of rat Kvbeta2 reductase activity – biochemical, NADPH fluorescence, primary screen (AID 622);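 also: slope of raw intensity against log time taken from 70 to 1610 s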
measurement-context: recombinant KvBeta, 4-cyanobenzaldehyde reduction, at 10 µM, stronger effect = higher value
Answer field: number only, no words.

Incoming: Under Voltage-gated potassium channel subunit beta-2 (Rattus norvegicus) (UniProt P62483), report fluorescence slope for CCCCCCC(c1c(C)n(C)n(-c2ccccc2)c1=O)c1c(C)n(C)n(-c2ccccc2)c1=O
Outgoing: -0.407

Incoming: Under Voltage-gated potassium channel subunit beta-2 (Rattus norvegicus) (UniProt P62483), report fluorescence slope for CCOC(=O)c1cc2ccc(OC)c(OC)c2c(=O)s1
Outgoing: -0.396

Incoming: Under Voltage-gated potassium channel subunit beta-2 (Rattus norvegicus) (UniProt P62483), report fluorescence slope for CC(NS(=O)(=O)c1ccc(OCC(=O)N2CCOCC2)c(Cl)c1)c1ccccc1 (stereo not drawn)
Outgoing: -0.409

---

For each of the compounds below, state its nuclei count.
assay-name: endothelial E-selectin expression blockers – imaging, HUVEC, immunofluorescence, MLSMR starter and 10KST1 sets, primary screen (AID 487);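 also: 100% = median nuclei count of all wells on the same plate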
measurement-context: HUVEC TNFalpha-induced E-selectin immunofluorescence imaging, at 2 µM; measured here: cell number, toxicity
Hi, when you answer, please include the unit after the number. Thanks!

Incoming: Report nuclei count for O=C(CN1C(=O)NC(Cc2ccccc2)C1=O)Nc1ccccc1 (stereo unspecified)
Outgoing: 111%

Incoming: Report nuclei count for CCC(=O)c1ccc(OCC(O)CN2CCN(S(=O)(=O)N3CCCCC3)CC2)cc1 (stereo unspecified)
Outgoing: 184%

Incoming: Report nuclei count for CC1(C(=O)NC2CCCCC2)CCC(=O)N1Cc1cccs1 (stereo unspecified)
Outgoing: 130%

Incoming: Report nuclei count for Cc1ccccc1NC(=O)CSc1nnc(Cc2cccn2C)n1-c1ccc(F)cc1
Outgoing: 114%

Incoming: Report nuclei count for Cc1ccc(C)c(-n2nnnc2SCC(=O)NCCC2=CCCCC2)c1
Outgoing: 106%

Incoming: Report nuclei count for CCOC(=O)c1cnc(-n2nc(C)cc2C)nc1NC(C)c1ccccc1 (stereo unspecified)
Outgoing: 93.5%

Incoming: Report nuclei count for CN(C)CCCNC(=O)CCC1CCCCC1
Outgoing: 110%

Incoming: Report nuclei count for COc1ccc(S(=O)(=O)Nc2ccc(Cl)cn2)c(C)c1C
Outgoing: 98.5%

Incoming: Report nuclei count for CC(=O)N1CCN(c2ccc(NC(=O)c3ccc(C(C)(C)C)cc3)cc2)CC1
Outgoing: 135%

Incoming: Report nuclei count for CCC(=O)N(Cc1ccco1)c1nc(-c2cc(OC)ccc2OC)cs1
Outgoing: 101%

Incoming: Report nuclei count for COc1cc(OC)cc(C(=O)NCc2n[nH]c(=S)n2-c2ccccc2OC)c1
Outgoing: 83%

Incoming: Report nuclei count for CCOc1ccccc1C(=O)NCC(=O)OCC(=O)N1C(C)CCCC1C (stereo unspecified)
Outgoing: 112%

Incoming: Report nuclei count for COc1ccc(C2C(C(C)=O)=C(C)N=c3s/c(=C/c4ccc5c(c4)OCO5)c(=O)n32)cc1 (stereo unspecified)
Outgoing: 116%

Incoming: Report nuclei count for Cc1ccc(S(=O)(=O)NCC(=O)OCC(=O)Nc2ncc(Cl)cc2Cl)cc1
Outgoing: 114%

Incoming: Report nuclei count for O=S(=O)(Cc1ccc(Cl)cc1)Nc1ccc2c(c1)OCO2
Outgoing: 123%

Incoming: Report nuclei count for CCOc1cccc(-c2nnc3n2N=C(c2cc(OC)ccc2OC)CS3)c1
Outgoing: 111%

---

assay-name: inhibitors of TNFa-induced NFkB p65 translocation, primary screen, imaging, HUVEC, MLSMR starter and 10KST1 sets (AID 438);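 also: compound added about 3h40 before a 20 min TNFalpha stimulation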
measurement-context: HUVEC TNFa-induced p65 nuclear translocation; measured here: nuclei count (cytotoxicity indicator), at 2.08 µM
For each of the compounds below, state its cell count.
Answer field: number only, no words.

Incoming: Report cell count for CCOC(=O)/C=C1\SCC(=O)N1Cc1nnc(-c2ccccc2Br)o1
Outgoing: 505

Incoming: Report cell count for CCn1c(SCC(N)=O)nnc1-c1ccc(S(=O)(=O)N2CCN(C)CC2)cc1
Outgoing: 736

Incoming: Report cell count for CC(C)(C)NC(=O)COC(=O)c1snc(C(=O)NC2CCCCC2)c1N
Outgoing: 236

Incoming: Report cell count for Cc1cccc(-n2c(SCc3cc(=O)n4ccsc4n3)nc3ccccc32)c1
Outgoing: 439

Incoming: Report cell count for Cc1cc(NCCN(C)C)n2nc(-c3cccs3)cc2n1
Outgoing: 597

Incoming: Report cell count for CCn1c(=O)cc(SCC(=O)NCCN2CCN(Cc3ccccc3)CC2)c2ccccc21
Outgoing: 478

Incoming: Report cell count for O=C(CSc1nc(-c2ccc(F)cc2)cs1)N1CCOCC1
Outgoing: 311

Incoming: Report cell count for Cc1cccc(C)c1NC(=O)c1cc(S(=O)(=O)N2CCOCC2)ccc1F
Outgoing: 341

Incoming: Report cell count for CC1CCCN(c2ccc(C(=O)NCc3cccs3)cn2)C1 (stereo not given)
Outgoing: 632

Incoming: Report cell count for O=C(C1CCCO1)N1CCN(S(=O)(=O)c2ccccc2)CC1 (stereo not given)
Outgoing: 328

---

assay-name: reduction of polyQ htt aggregates in cells – imaging, exon1htt(103Q)mCFP cells, high-content imaging, primary screen (AID 483);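 also: compound exposure lasted 3 days before fixation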
measurement-context: exon1htt(103Q)mCFP cell line, aggregate imaging, at 2 µM
The source made the active and inactive calls.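 Rule for the calls: active = visual image review flags a hit and inhibition of aggregation exceeds 20%; inconclusive = visual hit but inhibition at or below 20%; inactive = no hit on visual image review.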
API: response.call in active, inactive

Incoming: Outcome? Cc1cc(NCCN2CCOCC2)n2nc(C)c(-c3ccccc3)c2n1
Outgoing: inactive

Incoming: Outcome? CS(=O)(=O)N1CCCC(C(=O)NCCCN2CCc3ccccc3C2)C1 (centres undefined)
Outgoing: inactive

Incoming: Outcome? Cc1nc(C)n(C(C)CC(=O)O)n1 (centres undefined)
Outgoing: active

Incoming: Outcome? CCOC(=O)N1CCC2(CC1)CC(=O)c1c(ccc3oc(C(=O)O)c(C)c13)O2
Outgoing: inactive

---

For each of the molecules below, state its slope.
target-under-test: Alpha-2C adrenergic receptor (Homo sapiens) (UniProt P18825)
Sequence (P18825 whole entry, looked up): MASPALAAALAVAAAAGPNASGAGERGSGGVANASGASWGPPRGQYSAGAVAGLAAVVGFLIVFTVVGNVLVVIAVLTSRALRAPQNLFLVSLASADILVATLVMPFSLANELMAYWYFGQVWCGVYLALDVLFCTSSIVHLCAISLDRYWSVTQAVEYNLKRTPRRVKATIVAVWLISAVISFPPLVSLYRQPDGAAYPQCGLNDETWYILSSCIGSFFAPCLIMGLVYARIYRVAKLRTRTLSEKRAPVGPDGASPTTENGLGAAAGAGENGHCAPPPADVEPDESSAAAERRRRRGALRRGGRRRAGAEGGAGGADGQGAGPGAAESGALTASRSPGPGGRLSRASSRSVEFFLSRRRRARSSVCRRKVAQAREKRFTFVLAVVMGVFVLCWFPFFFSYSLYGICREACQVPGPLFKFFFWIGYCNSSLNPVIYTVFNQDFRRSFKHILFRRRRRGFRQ
assay-name: compounds altering alpha2C-coupled GIRK flux – cell-based, HEK293 alpha2C/GIRK1/2, thallium flux, primary screen (AID 624);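 also: slope of fluorescence ratio to pre-addition baseline per second over 15 to 24 s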
measurement-context: thallium flux BTC fluorescence, at 10 µM, actives lie on both sides
Answer field: number only, no words.

Incoming: Report slope for COCCNC(=O)CN1CCC(NC(=O)Nc2ccc(C(F)(F)F)cc2)CC1
Outgoing: 0.0053

Incoming: Report slope for Cn1cccc1Cc1nnc(SCC(=O)Nc2ccccc2F)n1CCc1ccccc1
Outgoing: 0.00629

Incoming: Report slope for CC(C)(C)NC(=O)C(Cc1ccccc1)NS(=O)(=O)c1cccc2nsnc12 (stereo not given)
Outgoing: 0.00438

Incoming: Report slope for COC(=O)Cn1c2ccccc2c2nc(C)sc21
Outgoing: 0.00472

Incoming: Report slope for COc1ccc(OC)c(N(CC(=O)Nc2cccnc2)S(=O)(=O)c2ccc(OC)c(OC)c2)c1
Outgoing: 0.00497

Incoming: Report slope for O=c1c2cc3ccccc3n2cnn1Cc1ccccc1F
Outgoing: 0.00758

Incoming: Report slope for CC(=O)Nc1ccc(NC(=O)c2cc(C)nn2-c2ccccc2)cc1
Outgoing: 0.00394

Incoming: Report slope for Cc1cc(-c2ccccc2)nc(SCc2ccc(C(=O)O)o2)n1
Outgoing: 0.00508

Incoming: Report slope for CCN(CC)C(=O)Oc1ccc(NC(C)=O)cc1
Outgoing: 0.00611

Incoming: Report slope for O=C(O)Cn1cc(C(=O)c2ccco2)c2ccccc21
Outgoing: 0.00668

Incoming: Report slope for O=C(NCCSc1c[nH]c2ccccc12)c1ccco1
Outgoing: 0.00591

Incoming: Report slope for CCOc1ccccc1-n1c(SCC(=O)NCc2ccco2)nnc1-c1ccncc1
Outgoing: 0.00499

Incoming: Report slope for Cc1ccc2cc(CN(CC3CCCO3)S(=O)(=O)c3ccc4c(c3)OCCO4)c(=O)[nH]c2c1C (stereo not given)
Outgoing: 0.00544

Incoming: Report slope for CN(C)C(CNC(=O)Nc1cccc(Cl)c1)c1cccnc1 (stereo not given)
Outgoing: 0.00889

Incoming: Report slope for Cc1nc(-c2cccc(-c3noc(C)n3)c2)no1
Outgoing: 0.00665

Incoming: Report slope for CC(=O)C1=C(C)OC(N)=C(C#N)C1c1ccncc1 (stereo not given)
Outgoing: 0.004

Incoming: Report slope for CN(C)c1ccc(NC(=O)Nc2cccc(Cl)c2)cc1
Outgoing: 0.00643

Incoming: Report slope for Cc1c[nH]c2cccc(OCC(O)CNC(C)(C)C)c12 (stereo not given)
Outgoing: 0.00547

Incoming: Report slope for O=C(CSc1nnc(SCc2ccc(Cl)cc2)s1)N1CCN(C(=O)c2ccco2)CC1
Outgoing: 0.00593

Incoming: Report slope for Cc1cc(C(=O)N2CCCc3ccccc32)no1
Outgoing: 0.00507
